testSummary: Protein binding in human plasma
Type: ADME, cell-free
assayConditions: read-out: PPB (converted)
experimentalEndpoint: fraction unbound
Lab note: write the figure by itself, no unit.

Name the recorded fraction unbound of the compound listed here: O=[N+]([O-])c1ccc2nc(COCc3nc4ccc([N+](=O)[O-])cc4[nH]3)[nH]c2c1
0.0086

---

measuredOn: ATP-sensitive inward rectifier potassium channel 1 (Rattus norvegicus, UniProt P35560)
Sequence (P35560 whole entry): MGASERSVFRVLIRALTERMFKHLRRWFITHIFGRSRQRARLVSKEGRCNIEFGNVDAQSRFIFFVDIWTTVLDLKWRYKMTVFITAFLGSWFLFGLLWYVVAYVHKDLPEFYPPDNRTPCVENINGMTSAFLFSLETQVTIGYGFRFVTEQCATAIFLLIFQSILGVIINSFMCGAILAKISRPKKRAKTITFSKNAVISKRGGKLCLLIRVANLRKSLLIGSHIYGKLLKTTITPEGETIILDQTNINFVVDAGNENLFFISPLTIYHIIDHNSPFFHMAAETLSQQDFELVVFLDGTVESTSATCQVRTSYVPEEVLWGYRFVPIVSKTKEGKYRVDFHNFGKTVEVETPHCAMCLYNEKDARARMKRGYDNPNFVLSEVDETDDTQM
testSummary: Inhibition of rat ROMK1 expressed in HEK293 cells by Tl+ flux assay
Met if IC50 is below 200 nM. Not met if not; exact matches included in Not met.

1. CC1=C(N2CCC3(CCN(C[C@@H](O)c4ccc5c(c4Cl)Cn4nnnc4-5)CC3)C2=O)COC1=O :: Met
2. C[C@H]1CC2(CCN(C[C@@H](O)c3ccc4c(ccc5nnnn54)c3)CC2)C(=O)N1C1=CC(=O)OC1 :: Met
3. CC1=C(N2CCC3(CCN(CC(CO)c4ccc5c(ccc6nnnn65)c4)CC3)C2=O)COC1=O (stereo not drawn) :: Met
4. CC1=C(N2CCC3(CCN(C[C@H](O)c4ccc5c(c4)Cn4nnnc4-5)C[C@H]3F)C2=O)COC1=O (stereo partly drawn) :: Met
5. O=[N+]([O-])c1ccc(CN2CCOCCOCCN(Cc3ccc([N+](=O)[O-])cc3)CCOCC2)cc1 :: Not met
6. O=[N+]([O-])c1ccc2nc(COCc3nc4ccc([N+](=O)[O-])cc4[nH]3)[nH]c2c1 :: Not met
7. CC1=C(N2CCC3(CCN(CCc4ccc5c(c4)Cn4nnnc4-5)CC3)C2=O)COC1=O :: Met

Now examine the next entry.
Report whether reported IC50 is lower than 200 nM (strictly) for O=[N+]([O-])c1ccc2[nH]c(CCCc3nc4cc([N+](=O)[O-])ccc4[nH]3)nc2c1
Not met

---

measuredOn: ATP-sensitive inward rectifier potassium channel 1 (Homo sapiens, UniProt P48048)
Sequence (P48048 whole entry): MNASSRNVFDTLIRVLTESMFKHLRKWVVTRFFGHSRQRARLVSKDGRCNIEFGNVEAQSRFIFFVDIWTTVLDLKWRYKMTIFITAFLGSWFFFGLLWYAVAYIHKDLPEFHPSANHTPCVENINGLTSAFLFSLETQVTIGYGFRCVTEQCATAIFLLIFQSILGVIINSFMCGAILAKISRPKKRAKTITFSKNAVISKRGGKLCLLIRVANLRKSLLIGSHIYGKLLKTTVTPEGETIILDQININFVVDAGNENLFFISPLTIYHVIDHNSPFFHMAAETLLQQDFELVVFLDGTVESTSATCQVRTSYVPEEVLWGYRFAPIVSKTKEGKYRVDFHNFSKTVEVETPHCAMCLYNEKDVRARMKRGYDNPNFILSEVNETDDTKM
testSummary: Inhibition of human ROMK1 expressed in HEK293 cells by Tl+ flux assay
Format: cell-based
# maps each entry to its IC50
Hi! Could you send only the number? It should be in nM, unit omitted.

Please report the measured IC50 for O=C1OCCc2cc([C@@H]3CN4CCN(C(=O)Cc5ccc(-n6cnnn6)cc5)C[C@H]4CO3)ccc21
57

Give a short answer stating reported IC50 for Cc1c(C#N)cccc1[C@@H]1CN2CCN(C(=O)Cc3ccc(-n4cnnn4)cc3)C[C@H]2CO1 .
60

---

measuredOn: ATP-sensitive inward rectifier potassium channel 1 (Homo sapiens)
testSummary: Inhibition of human ROMK1 expressed in CHO cells by Tl+ flux assay
Type: cell-based
experimentalEndpoint: pIC50
Scale: pIC50 equals -log10([C]), with [C] in mol/L.

Name the recorded pIC50 of the item Cc1c(C(O)CN2CCc3nc(-n4ncc5c(C#N)cccc54)ncc3C2)ccc2c1COC2=O (centres undefined) in your answer.
7.42

Find the measured pIC50 of Cc1c([C@@H]2CN(Cc3ccc(-n4cc(C#N)cn4)cn3)CCN2)ccc2c1COC2=O and report it.
8.06

Give the reported value of pIC50 for this record: Cc1cc(-c2ncc(CNC[C@H](O)c3ccc4c(c3C)COC4=O)s2)ccc1C#N
8.18

Provide pIC50 value for the following molecule: CCOc1cc(-n2cc(CNC[C@H](O)c3ccc4c(c3C)COC4=O)cn2)ccc1C#N
8.21

---

testSummary: Protein binding in rat plasma
Assay type: ADME, cell-free
assayConditions: read-out: PPB (converted)
experimentalEndpoint: fraction unbound
Number, no unit, nothing else.

Output fraction unbound of O=[N+]([O-])c1ccc2nc(COCc3nc4ccc([N+](=O)[O-])cc4[nH]3)[nH]c2c1
0.0161

Cited source: ChEMBL document CHEMBL4321786
